Just for reference, patent US10231954B2 is where these values come from.

- Target system: ERK5 (Homo sapiens)
- Sequence (Q13164 whole entry, species assumed): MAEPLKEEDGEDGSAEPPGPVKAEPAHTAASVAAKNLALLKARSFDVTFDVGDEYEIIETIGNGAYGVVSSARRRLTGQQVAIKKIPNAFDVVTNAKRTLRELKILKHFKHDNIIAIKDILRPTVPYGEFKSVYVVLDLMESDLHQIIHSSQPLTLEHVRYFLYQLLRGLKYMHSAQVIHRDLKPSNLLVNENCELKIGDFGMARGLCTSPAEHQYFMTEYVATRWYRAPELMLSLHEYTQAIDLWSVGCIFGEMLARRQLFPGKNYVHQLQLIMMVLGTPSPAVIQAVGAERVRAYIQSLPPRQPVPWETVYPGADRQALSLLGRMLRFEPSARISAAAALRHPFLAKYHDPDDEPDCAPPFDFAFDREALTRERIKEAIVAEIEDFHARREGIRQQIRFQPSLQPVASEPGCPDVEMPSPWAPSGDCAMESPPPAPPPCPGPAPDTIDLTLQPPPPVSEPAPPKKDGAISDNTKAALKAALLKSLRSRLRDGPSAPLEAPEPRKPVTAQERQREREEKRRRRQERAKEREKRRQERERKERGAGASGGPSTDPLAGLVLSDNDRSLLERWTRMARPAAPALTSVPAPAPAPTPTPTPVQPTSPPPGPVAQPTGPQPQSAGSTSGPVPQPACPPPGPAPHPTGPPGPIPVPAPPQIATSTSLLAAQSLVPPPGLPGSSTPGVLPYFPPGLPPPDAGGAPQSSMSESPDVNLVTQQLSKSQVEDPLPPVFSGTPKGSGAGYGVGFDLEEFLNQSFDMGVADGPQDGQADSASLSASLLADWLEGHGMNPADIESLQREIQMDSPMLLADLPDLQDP
- Assay notes: Kinase profiling ERK5
- Type: biochemical
- Condition description: 100 micromolar inhibitor concentration; 100 is no change
- Text: Any value less that 25 is considered to be highly significant inhibition.
Assign residual kinase activity, ERK5 to each entry below.
In your answer, state the number alone without any accompanying words.

Please fill in: residual kinase activity, ERK5 reported for `CC(=O)Nc1nc2ccccc2s1` = 66

Entry `COc1ccc2sc(NC(=O)c3ccc(NC(C)=O)cc3)nc2c1` , residual kinase activity, ERK5 reported as 74

residual kinase activity, ERK5 for `CC(=O)Nc1ccccc1C(=O)Nc1nc2ccc(O)cc2s1` is 47

Recorded result, `CC(=O)Nc1cccc(C(=O)Nc2nc3ccc(O)cc3s2)c1` , residual kinase activity, ERK5: 31

Kindly note the recorded residual kinase activity, ERK5 for `O=C(Nc1nc2cc(O)ccc2s1)c1cccnc1` , which is 58

What the record says about `O=C(Nc1nc2ccc(O)cc2s1)c1ccncc1` : residual kinase activity, ERK5 is 41

Record `CC(=O)Nc1cccc(C(=O)Nc2nc3cc(O)ccc3s2)c1` , field residual kinase activity, ERK5: 32

According to the records, this compound `O=C(Nc1nc2cc(O)ccc2s1)c1ccccn1` displays residual kinase activity, ERK5 of 51

GET /value?item= `CC(=O)Nc1ccc(C(=O)Nc2nc3cc(O)ccc3s2)cc1` &field=residual kinase activity, ERK5 returns 54

// sample `O=C(Nc1nc2ccc(O)cc2s1)c1ccccc1` , its residual kinase activity, ERK5 was 30
